# measurement_notes: inhibitors of intracellular T. cruzi replication, confirmation, NIH3T3 host cells, beta-gal luminescence (AID 2044);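 note: intracellular parasites grown in NIH/3T3 mouse fibroblasts as host cells; luminescent beta-galactosidase reporter signal from transgenic T. cruzi replicating inside host cells; inhibitors lower the luminescence signal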
# Assay type: functional, cell-based
The source made the active and inactive calls.
recorded_metric: EC50

> print(dat)
                                   compound  recorded.metric            result
1  OC1c2cc(Br)ccc2N=C2CCCN21 (stereo unspecified)             EC50  3780 nM (active)
2       CC(C)(C)CC(=O)NCCc1csc(-c2ccccc2)n1             EC50  1100 nM (active)
3  Cc1ccc(C(=O)NNc2cc(N3CCCC3)nc(N3CCCC3)n2)cc1             EC50  2300 nM (active)

Data request: Give its EC50 value. Item: CCOc1ccc(CN2CCN(Cc3cccn3-c3cccnc3)CC2CCO)cc1 (stereo unspecified)
Data returned: 1890 nM (active)

Data request: Do the same for Cc1[nH]c2ccc(F)cc2c1CCN(Cc1cccnc1)C(S)=Nc1ccc(F)cc1 please
Data returned: 705 nM (active)

====

# system_tested: Paired box protein Pax-8 (Homo sapiens)
# Sequence (Q06710 whole entry): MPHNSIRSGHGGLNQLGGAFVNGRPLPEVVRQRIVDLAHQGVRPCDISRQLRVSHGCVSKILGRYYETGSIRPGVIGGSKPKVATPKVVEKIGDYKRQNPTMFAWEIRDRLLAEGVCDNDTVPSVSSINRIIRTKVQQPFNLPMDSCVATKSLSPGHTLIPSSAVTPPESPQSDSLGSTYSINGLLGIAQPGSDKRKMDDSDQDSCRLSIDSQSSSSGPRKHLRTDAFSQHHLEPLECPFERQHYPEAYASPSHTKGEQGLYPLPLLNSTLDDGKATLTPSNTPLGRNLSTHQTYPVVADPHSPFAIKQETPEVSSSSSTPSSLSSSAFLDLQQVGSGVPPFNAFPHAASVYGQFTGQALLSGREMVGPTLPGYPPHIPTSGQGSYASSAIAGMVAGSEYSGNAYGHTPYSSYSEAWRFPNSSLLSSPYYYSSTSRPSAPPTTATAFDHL
# measurement_notes: inhibitors of PAX8-driven TPO luciferase reporter, dose response, RMG-I cells, cherry-pick (AID 687027);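 note: luciferase reporter driven by Pax8 target thyroperoxidase promoter measured by SteadyGlo luminescence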
# Assay type: functional, cell-based
Activity calls are given as the source filed them.
recorded_metric: AC50

Examples from the recorded data:
> print(dat)
                               given.smiles            result
1           Cc1cccc(N(Cc2ccccc2)C(=O)CCl)c1  3.46 µM (active)
2                 CCCCCCN(C(=O)CCl)c1ccccc1  6.26 µM (active)
3  CC1=CC(=O)C(C(C)C)=C/C1=N/OS(=O)(=O)c1ccccc1  6.97 µM (active)

Data request: Give its AC50 value. Item: C[C@@H]1CCCCO[C@H](CN(C)Cc2ccc(Cl)c(Cl)c2)[C@@H](C)CN([C@@H](C)CO)C(=O)c2cc(NC(=O)Nc3ccccc3)ccc2O1
Data returned: 4.29 µM (active)

====

# system_tested: Apoptotic protease-activating factor 1 (Homo sapiens, UniProt O14727)
# Sequence (O14727 whole entry): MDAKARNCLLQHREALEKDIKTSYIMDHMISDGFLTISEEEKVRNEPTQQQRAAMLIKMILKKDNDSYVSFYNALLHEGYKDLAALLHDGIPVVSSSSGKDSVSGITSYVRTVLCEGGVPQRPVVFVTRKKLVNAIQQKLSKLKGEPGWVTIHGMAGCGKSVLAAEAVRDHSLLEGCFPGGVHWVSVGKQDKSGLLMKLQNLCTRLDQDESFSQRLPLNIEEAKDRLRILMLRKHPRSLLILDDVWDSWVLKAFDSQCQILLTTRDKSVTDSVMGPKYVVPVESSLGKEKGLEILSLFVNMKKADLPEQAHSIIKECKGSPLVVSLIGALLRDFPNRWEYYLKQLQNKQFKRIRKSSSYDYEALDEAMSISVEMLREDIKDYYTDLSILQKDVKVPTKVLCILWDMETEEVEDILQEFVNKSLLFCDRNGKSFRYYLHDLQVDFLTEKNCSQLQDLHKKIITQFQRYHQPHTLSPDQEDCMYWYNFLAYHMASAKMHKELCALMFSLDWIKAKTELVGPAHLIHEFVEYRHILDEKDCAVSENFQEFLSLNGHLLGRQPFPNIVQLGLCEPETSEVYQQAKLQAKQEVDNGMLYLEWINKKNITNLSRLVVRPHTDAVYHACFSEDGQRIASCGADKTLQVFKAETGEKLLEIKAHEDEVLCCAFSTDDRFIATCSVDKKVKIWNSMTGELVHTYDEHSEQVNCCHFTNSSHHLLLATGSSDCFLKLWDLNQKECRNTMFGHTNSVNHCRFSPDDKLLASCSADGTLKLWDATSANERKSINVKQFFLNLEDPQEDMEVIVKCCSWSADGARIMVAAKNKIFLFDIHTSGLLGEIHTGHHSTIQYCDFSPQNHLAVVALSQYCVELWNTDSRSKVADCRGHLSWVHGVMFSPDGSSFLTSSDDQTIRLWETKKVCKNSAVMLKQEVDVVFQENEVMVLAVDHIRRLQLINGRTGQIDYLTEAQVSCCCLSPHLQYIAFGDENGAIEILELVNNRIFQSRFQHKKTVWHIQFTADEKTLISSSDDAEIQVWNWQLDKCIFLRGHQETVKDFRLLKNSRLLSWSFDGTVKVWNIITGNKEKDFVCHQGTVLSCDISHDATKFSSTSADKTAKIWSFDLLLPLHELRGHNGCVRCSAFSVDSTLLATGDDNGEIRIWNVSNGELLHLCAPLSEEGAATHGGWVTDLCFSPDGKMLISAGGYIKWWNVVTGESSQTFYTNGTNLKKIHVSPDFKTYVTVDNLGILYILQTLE
# Format: functional
Active and inactive are the calls of the source.
recorded_metric: IC50

Examples from the recorded data:
> print(dat)
                               given.smiles  recorded.metric            result
1     CC(=O)C(C(C)=O)C1(O)C(=O)c2ccccc2C1=O             IC50  9.72 µM (active)
2  Cc1ccc(NC2=C(NC(=O)c3ccccc3)C(=O)c3ccccc3C2=O)cc1Cl             IC50    17 µM (active)
3  Cc1ccc(C(=O)NNc2cc(N3CCCC3)nc(N3CCCC3)n2)cc1             IC50  5.08 µM (active)
4  Cc1cc(C(=O)N/N=C/c2c(C)nn(-c3ccccc3)c2O)[nH]n1             IC50  6.97 µM (active)

Data request: Give its IC50 value. Item: O=C1/C(=N\c2cccc(O)c2)C(N2CCCCC2)=C(O)c2ccccc21
Data returned: 4.03 µM (active)

====

# measurement_notes: inhibitors of SNCA 5'UTR-driven reporter translation, confirmation, H4 neuroglioma cells, luminescence (AID 1988)
# Type: functional, cell-based
Activity calls are given as the source filed them.
recorded_metric: EC50

Examples from the recorded data:
compound	EC50
C/C=C(\C)C(=O)N[C@@H](c1ccccc1)[C@@H](O)C(=O)O[C@H]1C[C@@]2(O)[C@@H](OC(=O)c3ccccc3)C3[C@](C)(C(=O)[C@H](OC(C)=O)C(=C1C)C2(C)C)[C@H](O)C[C@H]1OC[C@@]31OC(C)=O (stereo not given in full)	< 0.1 µM (active)
O=C1C(=C2SCCCS2)CC/C1=C\c1ccc(F)cc1	0.116 µM (active)
O=C(Nc1ccc(S(=O)(=O)NC2CCCCC2)cc1)c1ccco1	> 120 µM (not active)
Cc1cc(C)cc(Nc2nc3ccc(C)cc3n3cnnc23)c1	2.82 µM (active)

Continue with the next compound.
Data request: Give its EC50 value. Item: COc1ccc(OC)c(Nc2nc(-c3cccc([N+](=O)[O-])c3)nc3ccccc23)c1
Data returned: 69.3 µM (active)

====

Known EC50 of a selection of compounds
# system_tested: Peroxisome proliferator-activated receptor gamma/Nuclear receptor coactivator 2 (Homo sapiens)
# Sequence (P37231 whole entry): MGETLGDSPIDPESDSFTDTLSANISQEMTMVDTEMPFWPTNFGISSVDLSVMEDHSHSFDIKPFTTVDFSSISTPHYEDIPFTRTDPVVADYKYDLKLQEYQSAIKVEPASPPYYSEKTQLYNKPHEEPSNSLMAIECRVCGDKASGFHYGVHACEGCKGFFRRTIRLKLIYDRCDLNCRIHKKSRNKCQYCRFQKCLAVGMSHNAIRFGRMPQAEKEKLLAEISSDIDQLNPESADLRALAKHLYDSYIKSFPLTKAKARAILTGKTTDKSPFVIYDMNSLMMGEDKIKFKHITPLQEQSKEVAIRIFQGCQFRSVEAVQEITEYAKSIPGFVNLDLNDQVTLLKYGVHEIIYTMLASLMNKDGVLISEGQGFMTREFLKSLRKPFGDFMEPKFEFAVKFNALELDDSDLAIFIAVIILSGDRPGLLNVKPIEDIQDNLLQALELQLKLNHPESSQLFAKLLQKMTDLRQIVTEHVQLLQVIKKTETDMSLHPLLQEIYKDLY
# Sequence (Q15596 whole entry, further chain): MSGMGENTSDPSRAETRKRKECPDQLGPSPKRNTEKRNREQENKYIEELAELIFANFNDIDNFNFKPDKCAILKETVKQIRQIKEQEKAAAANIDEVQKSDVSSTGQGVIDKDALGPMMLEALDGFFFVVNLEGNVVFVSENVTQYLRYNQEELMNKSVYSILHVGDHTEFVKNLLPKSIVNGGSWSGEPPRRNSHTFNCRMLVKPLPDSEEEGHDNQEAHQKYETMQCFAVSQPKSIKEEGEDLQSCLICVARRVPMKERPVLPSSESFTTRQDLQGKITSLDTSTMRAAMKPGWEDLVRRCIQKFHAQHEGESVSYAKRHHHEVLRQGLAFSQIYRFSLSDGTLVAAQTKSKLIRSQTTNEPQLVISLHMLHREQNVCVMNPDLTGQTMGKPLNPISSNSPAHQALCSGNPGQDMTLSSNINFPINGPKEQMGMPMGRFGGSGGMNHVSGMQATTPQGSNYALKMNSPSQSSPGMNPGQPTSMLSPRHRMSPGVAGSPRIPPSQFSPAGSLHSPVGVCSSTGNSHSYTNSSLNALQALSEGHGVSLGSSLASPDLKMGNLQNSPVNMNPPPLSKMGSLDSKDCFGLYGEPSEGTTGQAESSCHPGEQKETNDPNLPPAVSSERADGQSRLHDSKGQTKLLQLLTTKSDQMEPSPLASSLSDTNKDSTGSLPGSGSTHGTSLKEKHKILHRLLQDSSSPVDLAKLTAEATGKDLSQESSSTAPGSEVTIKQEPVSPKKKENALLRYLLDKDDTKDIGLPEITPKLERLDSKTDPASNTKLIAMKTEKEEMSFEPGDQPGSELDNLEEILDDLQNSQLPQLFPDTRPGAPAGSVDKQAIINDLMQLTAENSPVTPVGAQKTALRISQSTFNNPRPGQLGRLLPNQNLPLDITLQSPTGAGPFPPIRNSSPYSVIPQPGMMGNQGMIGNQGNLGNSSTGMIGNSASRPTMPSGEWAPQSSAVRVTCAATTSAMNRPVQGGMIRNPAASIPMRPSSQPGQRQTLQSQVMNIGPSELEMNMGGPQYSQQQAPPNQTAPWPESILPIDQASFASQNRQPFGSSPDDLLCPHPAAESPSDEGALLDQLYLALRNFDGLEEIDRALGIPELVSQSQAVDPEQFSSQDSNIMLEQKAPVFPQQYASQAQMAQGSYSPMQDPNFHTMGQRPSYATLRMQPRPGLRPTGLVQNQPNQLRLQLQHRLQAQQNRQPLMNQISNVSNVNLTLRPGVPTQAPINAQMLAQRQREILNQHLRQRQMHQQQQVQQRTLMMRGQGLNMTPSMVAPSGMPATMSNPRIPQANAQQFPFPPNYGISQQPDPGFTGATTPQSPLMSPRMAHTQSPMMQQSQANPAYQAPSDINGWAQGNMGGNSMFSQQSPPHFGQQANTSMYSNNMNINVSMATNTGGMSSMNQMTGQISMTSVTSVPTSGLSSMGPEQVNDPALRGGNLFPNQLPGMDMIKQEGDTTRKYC
# measurement_notes: TR-FRET dose response biochemical High Throughput Screening assay for agonists of the steroid receptor coactivator 2 (SRC-2) recruitment by the peroxisome proliferator-activated receptor gamma (PPAR gamma): non-selective agonists. [Related pubchem assays: 1297, 1032 ]
# Format: functional
Activity calls are given as the source filed them.

Examples from the recorded data:
> print(dat)
                               given.smiles                result
1  NS(=O)(=O)c1ccc(-c2ccc(/C=C3\C(=O)Nc4cc(Cl)ccc43)o2)cc1      9.96 µM (active)
2  Cc1cc2cc(CNC(=O)c3ccc(S(=O)(=O)N4CCCCC4)cc3)ccc2n1C      3.37 µM (active)
3  O=C(Oc1ccccc1)Oc1ccc2c(c1)oc(=O)c1ccccc12  64.1 µM (not active)

Continue with the next compound.
Data request: Give its EC50 value. Item: CCn1c(=O)cc(SCC(=O)Nc2ccc(C)cn2)c2ccccc21
Data returned: > 79.4 µM (not active)

====

This section lists IC50 readings for Glyceraldehyde-3-phosphate dehydrogenase (Homo sapiens, UniProt P04406).

> print(dat)
                               given.smiles                             system.tested  recorded.metric                 result
1             CCCCOC(=O)c1ccc(S(N)(=O)=O)o1  Glyceraldehyde-3-phosphate dehydrogenase (Homo sapiens, UniProt P04406)             IC50  > 100 µM (not active)
2                        C#CCSc1nnc(N)[nH]1  Glyceraldehyde-3-phosphate dehydrogenase (Homo sapiens, UniProt P04406)             IC50  > 100 µM (not active)
3             O=C(O)c1cc(-c2ccccc2Cl)n[nH]1  Glyceraldehyde-3-phosphate dehydrogenase (Homo sapiens, UniProt P04406)             IC50  > 100 µM (not active)
4  COc1ccc2nc(O)c(-c3noc(-c4ccc(F)cc4)n3)cc2c1  Glyceraldehyde-3-phosphate dehydrogenase (Homo sapiens, UniProt P04406)             IC50  > 100 µM (not active)

Continue with the next compound.
Data request: Give its IC50 value. Item: COC(=O)c1cc(-c2ccc(C)cc2)[nH]n1
Data returned: > 100 µM (not active)
